The measurements presented in this section are drawn from patent EP4682166A1.

Overview of recorded Fold decrease in affinity for various binders
Biological target: T1, human NMI (N-myc Interacting protein), recombinant protein (human, UniProt Q13287 1-307, limits assumed)
T1 construct: Gene ID: 9111; also called hNMI; antigen
T1 sequence (looked up): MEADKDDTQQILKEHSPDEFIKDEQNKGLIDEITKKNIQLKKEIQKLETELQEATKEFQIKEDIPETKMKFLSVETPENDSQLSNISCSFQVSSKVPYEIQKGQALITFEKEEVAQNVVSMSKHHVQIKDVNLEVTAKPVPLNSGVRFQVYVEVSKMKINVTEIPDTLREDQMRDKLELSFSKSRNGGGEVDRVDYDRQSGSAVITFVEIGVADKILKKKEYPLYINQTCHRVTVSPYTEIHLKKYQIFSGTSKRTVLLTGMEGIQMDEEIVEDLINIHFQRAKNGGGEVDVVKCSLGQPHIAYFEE
Test: ELISA EC50 against parent 98G10
Enter your answer as a number in fold; do not include the unit.

INSERT INTO results (binder, reportedresult) VALUES
  ('98G10-L-1 (antibody, V domains shown, also called 98G10 Y93R (VL)) VH: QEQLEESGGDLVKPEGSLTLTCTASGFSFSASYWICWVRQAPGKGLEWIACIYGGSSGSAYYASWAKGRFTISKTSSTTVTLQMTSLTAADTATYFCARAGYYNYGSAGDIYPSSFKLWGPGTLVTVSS VL: DIVMTQTPASVEAAVGGTVTINCQASQSISTALAWYQQKPGQPPKLLIYTASKVASGVPSRFSGSGSGTQFTLTISDLECADAATYYCQNYYRSSSSITFGGGTEVVVK', 2.81);

98G10-H-14 (antibody, V domains shown, also called 98G10 W34D, Y112S (VH)) VH: QEQLEESGGDLVKPEGSLTLTCTASGFSFSASYDICWVRQAPGKGLEWIACIYGGSSGSAYYASWAKGRFTISKTSSTTVTLQMTSLTAADTATYFCARAGYYNYGSAGDISPSSFKLWGPGTLVTVSS VL: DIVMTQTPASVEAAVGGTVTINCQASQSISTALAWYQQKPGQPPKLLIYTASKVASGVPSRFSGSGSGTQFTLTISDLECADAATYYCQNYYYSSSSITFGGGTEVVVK yielded Fold decrease in affinity of 48.1

98G10-L-3 (antibody, V domains shown, also called 98G10 Y93Q (VL)) VH: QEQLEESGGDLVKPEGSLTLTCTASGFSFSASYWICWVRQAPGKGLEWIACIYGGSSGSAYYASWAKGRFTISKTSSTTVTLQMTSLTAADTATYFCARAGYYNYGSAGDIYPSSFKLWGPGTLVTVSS VL: DIVMTQTPASVEAAVGGTVTINCQASQSISTALAWYQQKPGQPPKLLIYTASKVASGVPSRFSGSGSGTQFTLTISDLECADAATYYCQNYYQSSSSITFGGGTEVVVK yielded Fold decrease in affinity of 2.13

98G10-H-3 (antibody, V domains shown, also called 98G10 Y112R (VH)) VH: QEQLEESGGDLVKPEGSLTLTCTASGFSFSASYWICWVRQAPGKGLEWIACIYGGSSGSAYYASWAKGRFTISKTSSTTVTLQMTSLTAADTATYFCARAGYYNYGSAGDIRPSSFKLWGPGTLVTVSS VL: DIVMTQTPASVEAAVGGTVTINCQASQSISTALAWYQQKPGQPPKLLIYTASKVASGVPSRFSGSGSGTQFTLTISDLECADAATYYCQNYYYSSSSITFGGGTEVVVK yielded Fold decrease in affinity of 0.9
